All values here come from the nanobody polyreactivity screen of Harvey et al. (2022).

experiment: yeast display, Sf9 membrane polyspecificity reagent, FACS + sequencing; frameworks hold sequencing errors
metric: polyreactivity (PSR sort gate)

polyreactivity (PSR sort gate) in this record for QVQLVESGGGLVQAGGSLRLSCAASGSIFQYYAMGWYRQAAGKERELVAAISGSGGRTYYADSVKGRFTISRDNAKNTVYLQMNSLKPEDTAVYYCNTVWWKQYNYWGQGTQVTVSS : high polyreactivity

polyreactivity (PSR sort gate) in this record for QVQLVESGVGLVQARGSLRLSSAASGITLPKYAMGWYRQEHGKERELVAAISRRGGITYYADSVKGRFTISRDNAKNTVYVQMNSLKPEDTAVYYCAADRTDTRGFDYWGQGTQVTVSS : high polyreactivity

polyreactivity (PSR sort gate) in this record for QVQLVESGGGLDQAGGSLRLSCAASGSTFYLYAMGWYRQAPGKERELVAAISSGGRTNYADSVKGRFTISRDNAKNTVYLQMNSLKPEDTAVYYCAARIQWPTWSLYYYWGQGTQVTVSS : high polyreactivity

polyreactivity (PSR sort gate) in this record for QVQLVESGGGLVQAGGSLRLSCAASGSIFSFYAMGWYRQAPGKERELVASITRRGGSTSYADSVKGRFTISRDNAKNTVYLQMNSLKPEDTAVYYCASESKFISVLRVGYYYVKFDYWGQGTQVTVSS : high polyreactivity

polyreactivity (PSR sort gate) in this record for QVQLVESGGGLDQAGGSLRLSCAASGLIFYDKMGWYRQAPRKERELVAAISSSCGSTSYADSVKGRFTISRDNAKHTVYLQMNSLKPEDTAVYYCAADSYPAYLGFVGFDYWGQGTQVTVSS : low polyreactivity

New cases:
polyreactivity (PSR sort gate) in this record for QVQLVETGGGLVQAGGSLRISCAASGRIFGVYAMGWYRQAPGKERELVAAITRGASTYYADSVKGRFTISRDNAKNTVYLQMNILKPEDTAVYYCAVSQYRGIYRKYDYWGQGTQVTVSS : high polyreactivity

polyreactivity (PSR sort gate) in this record for QVQLVESGGGLVQAGGSLRLSCAASGIIFREYAMGWYRQAPGKERELVAAISKSGGSTYYADSVKGRFTISRDNAKNTVYLQMNSLKPEDTAVYYCAARLGTFSIPMYYWGQGTQVTVSS : high polyreactivity

polyreactivity (PSR sort gate) in this record for QVQLVESGGGLVQAGGSLRLSCAASGSIFSKYAMGWYRQAPGKEREFVAAISRSGGRTYYADSVKGRFTISRDNAKNTVYLQMNSLKPEDTAVYYCAAYPYNPRRRTEGDYWGQGTQVTVSS : high polyreactivity

polyreactivity (PSR sort gate) in this record for QVQLVESGGGLVQAGGSLRLSCAASGRTFGTYAIVWYRPAPGKERELVAAITRRGGSTYYADSVKGRFTISRDNAKNTVYLQMNSLKPEDTAVYYCAARWFRYVPYSFPYLYKYDYWGQGTQVTVSS : low polyreactivity

polyreactivity (PSR sort gate) in this record for QVQLVESGGGLVQAGGSLRLSCAASGSTFRYYAMGWYRQAPGKVRELVAAITSSGTSTYYADSVTGRFTISRDNAKNTVYLQKNSLKPEDTAVYYCAAPPVYKWVSSRYDYWGQGTQVTVSS : low polyreactivity

polyreactivity (PSR sort gate) in this record for QVQLVESVGGLVQAGGSLRLSCAASGRTFGTYAMGWYRQAPGKERELVAAISTRGGRTFYADSVKGRFTISRDNAKNTVYLQMNSLKPEDTAVYYCAKGVFTWGVFRVGIRDDYWGQGTQVTVSS : high polyreactivity

###

assay: yeast display, Sf9 membrane polyspecificity reagent, FACS + sequencing; frameworks hold sequencing errors
metric: polyreactivity (PSR sort gate)

Here's what some known entries look like.
polyreactivity (PSR sort gate) in this record for QVQLVESWGGLVQAGGSLRLSCAASGRIFHRNTMGWYRQAPGKERELVAAIRSGSRTYYADSVKGRFTISRDNAKNTVYLQMNSLKPEDTAVYDCATTFGTPRYDYWGQGTQVTVSS : high polyreactivity

polyreactivity (PSR sort gate) in this record for QVQLVESGGGLVQAGGSLRLSCAASGFTFVRYAMGWYRQAPGKERELVAAISSSGSSTYYGDSVKGRFTISRDHEKNTVYLQMNSLKPEDTAVYYFNARAGRGEDYWGQGTQVTVSS : low polyreactivity

polyreactivity (PSR sort gate) in this record for QDQLVESGGGLVQAGGSLRLSCAASGFTFGENSMGWYRQAPGKERELVAANRYSGGSTYYADSVKGRFTISRDNAKNTVYLQMNSLKPEDTAVYYCNADTYALGPAVIPGDEYWGQGTQVTVSS : low polyreactivity

polyreactivity (PSR sort gate) in this record for QVQLVESGGGLVQAGGSLRISCAASGRIFGKNALGRYRQAPGKERDLVAAITGSGGSTYYADSVKGRFTISRDNAKNTVYLQMNSLKPEDTAVYYCATAYAVYHVEYGYWGQGTQVTVSS : low polyreactivity

polyreactivity (PSR sort gate) in this record for QVQLVESGGGLVQAGGSLRLSCAASGSTFVYNVMGWYRQAPGKERELVAAITSCVRTYYADSVKGRFTISRDNAKNTVYLQMNSLKPEDTAVYYCAARGYYSVVEYYYWGQGTQVTVSS : high polyreactivity

polyreactivity (PSR sort gate) in this record for QVQLVESGGGLVQAGGSLRLSCAASGITFSLYAMGWYRQAPGKERELVAAITRSGGSTYYADSVKGRFTISRDNAKNTVYLQMNSLKPEDTAVYYCAAQRPGVRRYYYWGQGTQVTVSS : high polyreactivity

polyreactivity (PSR sort gate) in this record for QVQLVESGGGLVQEGGSLRLSCASSGYTFPYYAMGWYRQAPGKERELVAAIRSGGGTNYADSVKGRFTISRDNAKNTVYLQMNSLKPEDTADYYCAKEWAGGLYDYWGQGTQVTVSS : low polyreactivity

polyreactivity (PSR sort gate) in this record for QVQLVESGGGLVQAGGSLRLSCAASGFIFRTYAMGWYRQAPGKERELVAAISRGGGTTYYADSVKGRFTISRDNAKNTVYFQMNSLKPEDTAFYYCAAYSQYLKRDYWGQGTQVTVSS : high polyreactivity

New cases:
polyreactivity (PSR sort gate) in this record for QVQLVESGGGLVQAGGSLRLSCAASGSTFWGYVMGWYRQAPGKERELVAAITGSGGSTYYADSVKGRFTISRDNAKNTVYLQMNSLKPEDTAVYYCAAAWSKSTSRRYGYWGQGTQVTVSS : low polyreactivity

polyreactivity (PSR sort gate) in this record for QVQLVESGGGLVQAGGSLRLSSAASGITIRYNDMGWYRQAPGKERELVAAITFSGGSTYYPDSVKGRFTISRDNAMNTVYLQMNSLKPEDTAVYYCAKLGSTSSRGNYDYWGQGTQVTVSS : low polyreactivity

polyreactivity (PSR sort gate) in this record for QVQLVETGGGLVQAGGSLRLSCAATGLIFYSYPMGWYRQAPGKERELVAALNGGGGSTYYADSVKGRFTISRDNAKNTVYLQMKSLKPEDTAVYYCAADLYNRGRGSSQSYRTGYDYWGQGTQVTVSS : high polyreactivity

polyreactivity (PSR sort gate) in this record for QVQLVESGGGLDQAGGSLRLSCAASGLTFRPYAMGGYRQAPWKERELDAGISGGGGRTYYADSVKGRFTISRDNAKNTVYFQMNSLKPEDTAVYYCATPSAYRYPYYYDYEYWGQGTQVTVSS : low polyreactivity

polyreactivity (PSR sort gate) in this record for QVQLEESGGRLVQAGGSLRLSCAASGSTFQTYAMGWYRQAPGKERELVAAITWRGGSTYYADSVKGRFTISRDNAKNTVYLQMNSLKPEDTAVYYCAAKWHGAHDHRAAYESWGQGTQVTVSS : low polyreactivity

polyreactivity (PSR sort gate) in this record for QVQLQESAGGLVQAGGSLRLRCSASGYISCDASMGWYRQAPRKERELAASITKGSSTNYADSVKGRFTIRDNAKNSVYLQMNSLKPEDTAVFYCAVTYPYWGDYTYWGQGTQVTVSS : low polyreactivity

polyreactivity (PSR sort gate) in this record for QVQLVESGGGLVQAGGSLRLSCAATGRTLVLYAMGWYRQAPGKERELVAAITWSGDSTYYADSVKGRFSISRDNAKYTVYLQMKSLKPEDTAVYYCAATYLNAKRGLRYDYWGQGTQVSVSS : low polyreactivity

polyreactivity (PSR sort gate) in this record for QVQLVESGGGLVQAGGSLRLSCAASGRIFRYYAMGWYRQAPGKERELVADIWSDGSTYYADSVKGRFTISRDNAKNTVYLQMNSLKPEDTAVYYCNAARTYYWYSAKFDYWGQGTQVTVSS : high polyreactivity

polyreactivity (PSR sort gate) in this record for QVQLVESGGGLVQAGGSLRLSCAASGSIFYENAMGWYRQAPGKERELVAAISWNAGSTYYADSVKGRFTISRDNAKNTVYFQMNSLKPEDTAVYYCATTADGIRYDYWGQGTQVTVSS : low polyreactivity

polyreactivity (PSR sort gate) in this record for QVQLVESGGGLVQAGGSLRLSCAASGITFSYNAMGWSRQAPGKERELVAAIRVGDGSTYYADSVKGRFTISRDNAKNTVYLQMNSLKPEDTAVYYCNARYLRLRYPYTDEYNYWGQGTQVTVSS : low polyreactivity
